All figures here come from patent US20250188040A1.

# System: HCT 116 cells
# method_summary: Cell growth assay (CellTiter-Glo 2.0), HCT 116 MSI-H cell line
# test_settings: Homo sapiens, HCT-116, 120 h, read-out: Cell Growth Inhibition GI50 HCT-116
I'd be grateful if you could share measured GI50 for these entries.

Indicate its recorded GI50; the molecule in question is C[C@@H](/C=C/S(C)(=O)=O)NC(=O)c1cnc(C2CCCC2)nc1Oc1ccc(C#N)cc1
> 10000 nM

Look up GI50 of CC(C)(C)c1ncc(C(=O)N[C@H](/C=C/S(C)(=O)=O)CC2CC2)c(Oc2ccccc2)n1 and report it.
87 nM

Supply recorded GI50 for C[C@@H](C#CC(=O)N(C)C)NC(=O)c1cnc(C(C)(F)F)nc1Oc1ccccc1 here.
1400 nM

In one line, give reported GI50 of the entry CO[C@H](C)[C@@H](/C=C/S(C)(=O)=O)NC(=O)c1cnc(C(C)(C)C)nc1Oc1ccccc1 .
1220 nM

Name the recorded GI50 of the molecule listed here: CCN(CC)c1ncc(C(=O)N[C@H](/C=C/S(C)(=O)=O)C2CC2)c(Oc2ccccc2)n1
198 nM

Find the measured GI50 of C[C@@H](/C=C/S(C)(=O)=O)NC(=O)c1cnc(N2CCCC2(C)C)nc1Oc1ccccc1 and report it.
2200 nM

// fetch GI50 given entry C[C@@H](/C=C/S(C)(=O)=O)NC(=O)c1cnc(C2CC2)nc1OC1CCCC1
693 nM

Look up and state reported GI50 for CS(=O)(=O)/C=C/[C@@H](NC(=O)c1cnc(OC2CC2)nc1Oc1ccccc1)C1CC1
140 nM

Please give the documented GI50 of C[C@@H](/C=C/S(C)(=O)=O)NC(=O)c1cnc(C(C)(F)F)nc1Oc1ccccc1
224 nM

---

Answer each item with its documented GI50.
# System: HCT 116 cells
# method_summary: Cell growth assay (CellTiter-Glo 2.0), HCT 116 MSI-H cell line
# test_settings: Homo sapiens, HCT-116, 120 h, read-out: Cell Growth Inhibition GI50 HCT-116
Numbers only; they are read as nM.

Please report GI50 with HCT 116 cells for item C=C(C#N)CNC(=O)c1cnc(C2CCCC2)nc1Oc1ccccc1 [Example 268] .
2100

Give GI50 for this entry on HCT 116 cells: COC[C@@H](/C=C/S(C)(=O)=O)NC(=O)c1cnc(C2CCCC2)nc1Oc1ccccc1 [Example 10]
72.4

State recorded GI50 with HCT 116 cells, entry CCc1ncc(C(=O)NC/C=C/S(C)(=O)=O)c(Oc2ccccc2)n1 [Example 12] , no comment.
8900

Lab note: HCT 116 cells assay, enter GI50 for CC(F)(F)c1ncc(C(=O)NC(C=CS(C)(=O)=O)C2CC(F)(F)C2)c(Oc2ccccc2)n1 (single isomer, unassigned) [192/193] here
23

Fill in: GI50 on HCT 116 cells, entry C[C@@H](/C=C/S(C)(=O)=O)NC(=O)c1cnc(C2CCCC2)nc1Oc1cc(F)cc(F)c1 [Example 116]
2500

Provide measured GI50 on HCT 116 cells for CN(C)C(=O)C[C@@H](/C=C/S(C)(=O)=O)NC(=O)c1cnc(C(C)(F)F)nc1Oc1ccccc1 [Example 92] please.
245

Fill in GI50 for COC[C@H](/C=C/S(C)(=O)=O)NC(=O)c1cnc(C(C)(C)C)nc1Oc1ccccc1 [Example 64] tested with HCT 116 cells.
2300

Retrieve GI50 on HCT 116 cells; query C[C@@H](/C=C/S(C)(=O)=O)NC(=O)c1cnc(CC2CCC2)nc1Oc1ccccc1 [Example 53]
970

Identify measured GI50 obtained with HCT 116 cells for [2H]c1c([2H])c([2H])c(Oc2nc(C3CC3)ncc2C(=O)N[C@@H](C)/C=C/S(C)(=O)=O)c([2H])c1[2H] [Example 140] .
330

Identify measured GI50 obtained with HCT 116 cells for CS(=O)(=O)/C=C/[C@@H](NC(=O)c1cnc(C2CCC2)nc1Oc1ccccc1)C1CC1 [Example 45] .
36.7

Param request: GI50 | system HCT 116 cells | item CS(=O)(=O)/C=C\[C@H](Cc1ccccc1)NC(=O)c1cnc(C2CC2)nc1Oc1ccccc1 (single isomer, unassigned) [Example 21]
3100

Retrieve GI50 on HCT 116 cells; query COC[C@@H](/C=C/S(C)(=O)=O)NC(=O)c1cnc(C(C)(C)C)nc1Oc1ccccc1 [Example 63]
30.6

Quote GI50 with test system HCT 116 cells for C[C@@H](/C=C/S(C)(=O)=O)NC(=O)c1ccc(C(C)(F)F)nc1Oc1ccccc1 [Example 232]
69.9

Please look at C[C@@H](/C=C/S(C)(=O)=O)NC(=O)c1cnc([C@H]2C[C@@H](C)C2)nc1Oc1ccccc1 (single isomer, unassigned) [Example 46] and tell me its recorded GI50 on HCT 116 cells.
124

Please respond with reported GI50 (system HCT 116 cells) for CS(=O)(=O)/C=C/[C@@H](NC(=O)c1cnc(CC2CC2)nc1Oc1ccccc1)C1CC1 [Example 36] .
59

Fetch value of GI50 on HCT 116 cells for CS(=O)(=O)/C=C/C1CN(C(=O)c2cnc(C3CC3)nc2Oc2ccccc2)C1 (single isomer, unassigned) [Example 24] .
7700

// fetch GI50 for C[C@@H](/C=C/S(C)(=O)=O)NC(=O)c1cnc(C2CC2)nc1Oc1ccccc1 [Example 18] ; system: HCT 116 cells
380

With HCT 116 cells as the test system, provide measured GI50 for this compound: CS(=O)(=O)/C=C/[C@@H](NC(=O)c1cnc(N2CC(F)C2)nc1Oc1ccccc1)C1CC1 [Example 182]
108
